system: U2OS; assay: Multiplex assay against U2OS; type: toxicity, cell-based; conditions: human, 12 h, 10 µM, compound concentration 10 uM, replicate 1
Population Normal (%) strictly less than 90% = 1. Otherwise 0.

# smiles-str, category-label
data = [
    ("CN1CCN(C(=O)C(C)(C)c2ccc(C(=O)Nc3cn4cc(-c5cc(C(C)(C)C)cc(C(C)(C)C)c5)ccc4n3)cc2)CC1", 0),
    ("O=C1NC(=O)C(c2cnc3ccccn23)=C1c1cn2c3c(cc(F)cc13)CN(C(=O)N1CCCCC1)CC2", 1),
    ("CNC(=O)c1ccc(Nc2nc(OC3CCCC3)c3c(-c4ccc5nc(C)oc5c4)c[nH]c3n2)c(OC)c1", 0),
    ("CCc1cccc(CC)c1NC(=O)c1nn(C)c2c1CCc1cnc(Nc3ccc(C(=O)NC4CCN(C)CC4)cc3OC(F)(F)F)nc1-2", 0),
]

###

test system: Fibroblast; assay: Multiplex assay against human fibroblast; format: toxicity, cell-based; settings: 12 h, 10 µM, compound concentration 10 uM, replicate 2
Label y when Population Tubulin-Different-Phenotype (%) is strictly below 50%; otherwise label n.

# smiles-str, tested-target, category-label
records = [
    ("O=C(Cc1ccc(-c2ccc(OCCN3CCOCC3)cc2)cn1)NCc1ccccc1", "Fibroblast", "y"),
    ("O=C(Nc1ccc(Cl)cc1)Nc1cccc(-c2cccc(N3CCCC3)n2)c1", "Fibroblast", "n"),
    ("Cc1ccc2nc(NCCN)c3ncc(C)n3c2c1.O=C(O)C(F)(F)F.O=C(O)C(F)(F)F", "Fibroblast", "y"),
    ("CCCS(=O)(=O)c1nc(NC2CC2)cc(-c2ccc3c(ccn3C3CC(C)(C)NC(C)(C)C3)c2)n1", "Fibroblast", "n"),
]

###

system: U2OS; assay: Multiplex assay against U2OS; assay type: toxicity, cell-based; conditions: human, 48 h, 10 µM, compound concentration 10 uM, replicate 1
value-type: Population Mitotic Cells (%)

# compound, recorded-measurement
records = [
    ("CN1CCN(C(=O)C(C)(C)c2ccc(C(=O)Nc3cn4cc(-c5ccncc5)ccc4n3)cc2)CC1 [T3-CLK]", 26),
    ("O=C(Cc1ccc(-c2ccc(OCCN3CCOCC3)cc2)cn1)NCc1ccccc1 [TIRBANIBULIN]", 35),
    ("CCCS(=O)(=O)c1nc(NC2CC2)cc(-c2ccc3c(ccn3C3CC(C)(C)NC(C)(C)C3)c2)n1", 9),
    ("CN(C)C(=O)C(CCN1CCC(O)(c2ccc(Cl)cc2)CC1)(c1ccccc1)c1ccccc1.Cl [LOPERAMIDE HYDROCHLORIDE]", 1),
    ("CCN1CCN(Cc2ccc(Nc3ncc(F)c(-c4cc(F)c5nc(C)n(C(C)C)c5c4)n3)nc2)CC1.CS(=O)(=O)O", 1),
    ("Cc1cc(C)c(S(=O)(=O)N(Cc2ccc(-c3cccc(S(C)(=O)=O)c3)cc2)Cc2ccc(C(F)(F)F)o2)c(C)c1", 45),
    ("CCn1c(=O)c(-c2ccc(-c3cncs3)cc2Cl)cc2cnc(Nc3ccc(N4CCN(C)CC4)cc3)nc21", 6),
    ("O=C(Nc1ccc(Cl)cc1)Nc1cccc(-c2cccc(N3CCCC3)n2)c1", 8),
    ("COCC(=O)NC/C=C/c1ccc2ncnc(Nc3ccc(Oc4ccc(C)nc4)c(C)c3)c2c1 [CP-724714]", 23),
    ("CNc1cc(Oc2cc(C(=O)Nc3cc(N4CCN(C)CC4)cc(C(F)(F)F)c3)ccc2C)ncn1", 3),
    ("CCCn1c(=O)c2[nH]c(-c3cnn(Cc4cccc(C(F)(F)F)c4)c3)nc2n(CC)c1=O [GS 6201]", 32),
    ("O=C1N/C(=N/c2ccccc2F)S/C1=C\\c1ccc(C(=O)O)cc1", 78),
    ("CCOc1cc(C(=O)N2CCC(N3CCN(C)CC3)CC2)ccc1Nc1ncc2c(n1)N(C1CCCC1)c1ccccc1C(=O)N2C", 6),
    ("CN1C2CCC1CC(OC(c1ccc(F)cc1)c1ccc(F)cc1)C2.Cl (centres undefined)", 35),
]

Taken from ChEMBL document CHEMBL4689842.
